biological target: KDM2B (FBXL10) (Homo sapiens); construct: KDM2B; BPS,; 1-650; Bac; purchased BPS Bioscience, US; host or cells: baculovirus system; test: Histone lysine demethylase AlphaLISA assay, KDM2B; type: biochemical; settings: AlphaLISA assay; read-out: HDME Inhibition KDM2B (IC50)
Sequence (Q8NHM5 1-650): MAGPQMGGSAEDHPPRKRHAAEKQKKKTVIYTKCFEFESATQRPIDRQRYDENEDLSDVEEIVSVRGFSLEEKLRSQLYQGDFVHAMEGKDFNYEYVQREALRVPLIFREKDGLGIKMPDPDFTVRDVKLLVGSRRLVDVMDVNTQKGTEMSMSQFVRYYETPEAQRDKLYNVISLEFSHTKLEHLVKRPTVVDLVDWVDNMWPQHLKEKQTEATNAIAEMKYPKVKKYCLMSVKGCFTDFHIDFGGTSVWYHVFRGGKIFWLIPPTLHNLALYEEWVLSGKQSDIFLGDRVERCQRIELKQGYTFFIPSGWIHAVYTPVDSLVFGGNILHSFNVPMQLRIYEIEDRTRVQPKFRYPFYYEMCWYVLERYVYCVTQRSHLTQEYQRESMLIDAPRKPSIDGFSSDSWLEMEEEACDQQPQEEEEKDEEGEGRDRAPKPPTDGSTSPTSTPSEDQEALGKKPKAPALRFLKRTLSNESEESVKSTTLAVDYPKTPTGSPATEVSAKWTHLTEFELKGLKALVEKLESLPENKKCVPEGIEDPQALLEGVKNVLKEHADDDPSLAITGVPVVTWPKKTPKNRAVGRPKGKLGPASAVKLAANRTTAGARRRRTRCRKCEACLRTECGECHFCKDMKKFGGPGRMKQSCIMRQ
Property: IC50

Q) Report IC50 for CCC(C)c1cnc(CNCc2cc(C(=O)O)cc(C)n2)n1Cc1ccc(F)cc1 (centres unmarked)
A) > 10 µM

Q) Supply recorded IC50 for `COc1ccc(CCn2ccnc2CNCc2cc(C(=O)O)cc(C)n2)cc1OC` here.
A) > 10 µM

Q) Given the compound `CCCCCc1cccnc1CCNCc1cc(C(=O)O)cc(C)n1` , write its reported IC50.
A) > 6.8 µM

Q) Find the measured IC50 of CCc1nnc(CNCc2cc(C(=O)O)cc(C)n2)n1Cc1cccc(C(C)O)c1 (centres unmarked) and report it.
A) > 10 µM

Q) Complete the entry with IC50 for CCCC(C)c1cnc(CNCc2cc(C(=O)O)cc(C)n2)n1Cc1ccc(F)cc1 (centres unmarked)
A) > 10 µM

---

biological target: PHF8 (KDM7) (Homo sapiens); construct: KDM7 (PHF8); BRIC; 1-1322; Bac; experiment: Histone lysine demethylase AlphaLISA assay, PHF8; format: biochemical; conditions: AlphaLISA, in vitro; read-out: HDME Inhibition PHF8
Sequence (Q9UPP1 37-440 limits assumed): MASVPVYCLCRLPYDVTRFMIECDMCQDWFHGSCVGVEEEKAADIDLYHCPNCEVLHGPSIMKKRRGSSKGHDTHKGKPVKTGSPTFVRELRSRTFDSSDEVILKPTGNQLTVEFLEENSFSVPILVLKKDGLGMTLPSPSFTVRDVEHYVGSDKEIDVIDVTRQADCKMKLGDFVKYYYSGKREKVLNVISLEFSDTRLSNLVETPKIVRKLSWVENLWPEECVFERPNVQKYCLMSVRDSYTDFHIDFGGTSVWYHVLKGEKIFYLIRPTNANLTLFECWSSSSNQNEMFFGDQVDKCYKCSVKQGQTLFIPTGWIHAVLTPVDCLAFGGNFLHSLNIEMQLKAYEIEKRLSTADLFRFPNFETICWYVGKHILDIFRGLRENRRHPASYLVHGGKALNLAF
Property: pIC50
Kindly note that pIC50 refers to -log10 of the concentration in mol/L and answer with the value alone.

Q) Supply measured pIC50 of `COc1ccc(CC(C)C)c(CNCc2cc(C(=O)O)cc(C)n2)n1` in your reply.
A) 5.42

Q) Indicate the recorded pIC50 value for this compound: `Cc1cc(C(=O)O)cc(CNCc2ncc(CCc3ccccc3)n2Cc2ccc(F)cc2)n1`
A) 5.97

Q) Retrieve pIC50 measured for `CSc1cnc(CNCc2cc(C(=O)O)cc(C)n2)n1Cc1ccc(F)cc1` and print it.
A) 6.06

Q) Could you please provide reported pIC50 for `Cc1cc(C(=O)O)cc(CNCc2nnc(C3CCC3)n2Cc2ccc(F)cc2)n1` ? Thanks!
A) 6.31

Q) Entry `CCc1nnc(CNCc2cc(C(=O)O)cc(CO)n2)n1CCCc1ccccc1` needs its pIC50 filled in; supply it.
A) 6.18

Q) Identify measured pIC50 associated with CCC(C)Cc1cnc(CNCc2cc(C(=O)O)cc(C)n2)n1Cc1ccc(F)cc1 (stereo not shown)
A) 5.65

Q) Specify pIC50 for `O=C(O)c1cc(CO)nc(CNCc2nc(CO)cn2Cc2ccc(F)cc2)c1` and stop.
A) 5.90

Q) Retrieve pIC50 measured for `COc1ccc(OCCc2ccccc2)c(CNCc2cc(C(=O)O)cc(C)n2)n1` and print it.
A) 6.40

Q) Kindly indicate its recorded pIC50. Item: `COc1ccc(OCc2ccccc2)c(CNCc2cc(C(=O)O)cc(CO)n2)n1`
A) 5.83

Q) Specify reported pIC50 for the compound shown: `Cc1cc(C(=O)O)cc(CNCc2nnc(C(C)(C)C)n2Cc2ccc(F)cc2)n1`
A) 5.96

Q) Specify pIC50 for `CCc1nnc(CNCc2cc(C(=O)O)cc(C)n2)n1Cc1ccc(F)cc1` and stop.
A) 6.27

Q) State, in one line, measured pIC50 of `C/C=C\c1cnc(CNCc2cc(C(=O)O)cc(C)n2)n1Cc1ccc(F)cc1`
A) 6.36

Q) Report measured pIC50; entry is `Cc1cc(C(=O)O)cc(CNCc2nnc(CN(C)C)n2Cc2ccc(F)cc2)n1`
A) 5.62

Q) Report pIC50 for `C=CCn1ccnc1CNCc1cc(C(=O)O)cc(C)n1`
A) 5.89

Q) Give the reported value of pIC50 for this record: `Cc1cc(C(=O)O)cc(CNCc2nncn2CCCc2ccccc2)n1`
A) 6.05

Q) // fetch pIC50 given entry `C=C(C)c1cnc(CNCc2cc(C(=O)O)cc(C)n2)n1Cc1ccc(F)cc1`
A) 6.80

Q) Please supply the value of reported pIC50 for the item `COc1ccc(OCc2ccccc2)c(CNCc2cc(C(=O)O)cc(C)n2)n1`
A) 5.91

Q) Answer with the recorded pIC50 for the compound listed here: `Cc1cc(C(=O)O)cc(CNCc2nncn2CCc2cc(Cl)cc(Cl)c2)n1`
A) 5.41

Q) Determine from records and report pIC50 for `Cc1nnc(CNCc2cc(C(=O)O)cc(CO)n2)n1CCCc1ccccc1`
A) 6.00

Q) Specify measured pIC50 for `Cc1cc(C(=O)O)cc(CNCc2ncc(C(C)C)n2Cc2ccc(F)cc2)n1` .
A) 6.42

Q) Fill in reported pIC50 for this entry: `CCc1cnc(CNCc2cc(C(=O)O)cc(CO)n2)n1Cc1ccc(F)cc1`
A) 5.94

Q) Dear colleague, please send me the reported pIC50 for `O=Cc1cn(Cc2ccc(F)cc2)c(CNCc2cc(C(=O)O)cc(CO)n2)n1` when you can.
A) 5.29

Q) Provide one value: measured pIC50 of `CSc1nnc(CNCc2cc(C(=O)O)cc(C)n2)n1Cc1ccc(F)cc1`
A) 6.04

Q) Tell me pIC50 reported for `Cc1cc(C(=O)O)cc(CNCc2nccn2Cc2ccc(F)cc2)n1`
A) 6.45

Q) Identify measured pIC50 corresponding to `Cc1cc(C(=O)O)cc(CNCCc2ncccc2Br)n1`
A) 5.16

Q) Note pIC50 for the compound shown: `CC#CCc1cnc(CNCc2cc(C(=O)O)cc(C)n2)n1Cc1ccc(F)cc1`
A) 5.45

---

Answer each item with its documented IC50.
molecular target: KDM6A (UTX) (Homo sapiens, UniProt O15550); construct: KDM6A (UTX); BRIC; 919-1401; E. coli; host or cells: E. coli; test: Histone lysine demethylase AlphaLISA assay, KDM6A; type: biochemical; settings: AlphaLISA assay; read-out: HDME Inhibition KDM6A (IC50)
Sequence (O15550 919-1401): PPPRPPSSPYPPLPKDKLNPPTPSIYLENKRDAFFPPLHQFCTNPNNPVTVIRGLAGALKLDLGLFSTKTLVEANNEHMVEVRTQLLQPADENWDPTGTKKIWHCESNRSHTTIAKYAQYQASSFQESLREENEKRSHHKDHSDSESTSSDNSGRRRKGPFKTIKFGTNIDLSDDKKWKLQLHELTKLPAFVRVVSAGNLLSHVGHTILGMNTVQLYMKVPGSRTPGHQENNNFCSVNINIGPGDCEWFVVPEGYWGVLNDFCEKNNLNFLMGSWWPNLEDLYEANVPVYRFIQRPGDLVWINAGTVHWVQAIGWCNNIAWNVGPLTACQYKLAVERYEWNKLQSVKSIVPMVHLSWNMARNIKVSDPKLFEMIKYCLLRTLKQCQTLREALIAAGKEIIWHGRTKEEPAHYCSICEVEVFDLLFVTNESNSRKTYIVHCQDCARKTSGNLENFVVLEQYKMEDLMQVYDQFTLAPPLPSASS

Q) Provide IC50 value for the following molecule: C/C=C/c1cc(C(=O)O)cc(CNCc2nccn2Cc2ccc(F)cc2)n1 [Compound 5]
A) > 10 µM

Q) Supply measured IC50 of COc1ccc(CCn2ccnc2CNCc2cc(C(=O)O)cc(C)n2)cc1 [Compound 17] in your reply.
A) > 10 µM

Q) Supply IC50 value. Item: Cc1cc(C(=O)O)cc(CNCc2nc3c(n2Cc2ccc(F)cc2)CCC3)n1 [Compound 25]
A) > 10 µM

Q) Supply measured IC50 of CCCCCCc1cccnc1CCNCc1cc(C(=O)O)cc(C)n1 [Compound 14] in your reply.
A) > 10 µM

Q) Consider the molecule Cc1cc(C(=O)O)cc(CNCCc2ccccn2)n1 [Compound 3] . State its measured IC50.
A) > 10 µM

---

target: KDM2B (FBXL10) (Homo sapiens); construct: KDM2B; BPS,; 1-650; Bac; purchased BPS Bioscience, US; host or cells: baculovirus system; assay: Histone lysine demethylase AlphaLISA assay, KDM2B; assay type: biochemical; conditions: AlphaLISA, in vitro; read-out: HDME Inhibition KDM2B
Property: IC50 (nM)
Give the value in nM but do not write nM after it.

Q) Give the measured IC50 for Cc1cc(C(=O)O)cc(CNCc2ncc(C(C)O)n2Cc2ccc(F)cc2)n1 (centres unmarked)
A) 333

Q) Give a short answer stating reported IC50 for `CC(C)Cc1ccc(OCc2ccccc2)nc1CNCc1cc(C(=O)O)cc(CO)n1` .
A) 308

Q) Supply measured IC50 of `CCCCCCCc1cccnc1CCNCc1cc(C(=O)O)cc(C)n1` in your reply.
A) 5350

Q) Return IC50 for the following compound: `CCc1nnc(CNCc2cc(C(=O)O)cc(C)n2)n1CCCc1ccccc1`
A) 2940

Q) Give recorded IC50. `CSc1nnc(CNCc2cc(C(=O)O)cc(C)n2)n1Cc1ccc(F)cc1`
A) 248

---

target: PHF8 (KDM7) (Homo sapiens); construct: KDM7 (PHF8); BRIC; 1-1322; Bac; experiment: Histone lysine demethylase AlphaLISA assay, PHF8; format: biochemical; conditions: AlphaLISA, in vitro; read-out: HDME Inhibition PHF8
Please note: IC50 exactly at 2 µM is 0.0. Only values below 2 µM get 1.0.

Q) Strictly below 2 µM: is that where IC50 of `O=C(O)c1cc(CO)nc(CNCc2nnc(Cc3cccs3)n2Cc2ccc(F)cc2)c1` sits?
A) 1.0

Q) Please let me know if `Cc1cc(C(=O)O)cc(CNCc2nc3c(n2Cc2ccc(F)cc2)CCC3)n1` shows IC50 below 2 µM.
A) 1.0

Q) Problem: For the compound `Cc1cc(C(=O)O)cc(CNCc2nccn2CC(C)C)n1` , is IC50 under 2 µM?
A) 0.0

Q) Dear reviewer, please state whether `CCc1cnc(CNCc2cc(C(=O)O)cc(C)n2)n1CCCc1ccccc1` has IC50 strictly beneath 2 µM.
A) 1.0

Q) Quick check: IC50 of CCC(C)c1cnc(CNCc2cc(C(=O)O)cc(C)n2)n1Cc1ccc(F)cc1 (stereo not drawn) under 2 µM?
A) 0.0

Q) Does `CCCCCCCc1cccnc1CCNCc1cc(C(=O)O)cc(C)n1` have IC50 strictly under 2 µM?
A) 0.0

Q) Hi there! Is IC50 for `Cc1cc(C(=O)O)cc(CNCc2nnc(Cc3ccccc3)n2Cc2ccc(F)cc2)n1` below 2 µM, do you know?
A) 0.0

Q) Decide: IC50 of `Cc1cc(C(=O)O)cc(CNCc2ncc(CCC(N)=O)n2Cc2ccc(F)cc2)n1` strictly below 2 µM?
A) 1.0

Q) Record `O=C(O)c1cc(CO)nc(CNCCc2nncn2Cc2ccc(C(F)(F)F)cc2)c1` : is its IC50 strictly below 2 µM?
A) 0.0

Q) Hi there! Is IC50 for `Cc1cc(C(=O)O)cc(CNCc2nncn2C/C=C/c2ccccc2)n1` below 2 µM, do you know?
A) 1.0

Q) Input `CCc1cnc(CNCc2cc(C(=O)O)cc(C)n2)n1CCCC(C)C` ; condition: IC50 strictly below 2 µM. Does it hold?
A) 1.0

Q) Would you kindly verify if IC50 of `Cc1cc(C(=O)O)cc(CNCCc2ncccc2C2=CCCC2)n1` is strictly less than 2 µM?
A) 0.0

Q) Bench note: check whether `Cc1cc(C(=O)O)cc(CNCCc2ncccc2CCC(C)C)n1` shows IC50 below 2 µM
A) 0.0

Q) IC50 under 2 µM? Item: `CCCc1nnc(CNCc2cc(C(=O)O)cc(CO)n2)n1Cc1ccc(F)cc1`
A) 1.0

Q) Consider `O=C(O)c1cc(CO)nc(CNCc2nnc(-c3ccccc3)n2CCCc2ccccc2)c1` . Does its IC50 lie strictly below 2 µM?
A) 0.0

Q) Given `COc1ccc(OCCc2ccccc2)c(CCNCc2cc(C(=O)O)cc(CO)n2)n1` , is recorded IC50 strictly lower than 2 µM?
A) 0.0

Q) is_below(IC50, 2 µM) for `C/C=C/c1cnc(CNCc2cc(C(=O)O)cc(C)n2)n1Cc1ccc(F)cc1` ?
A) 1.0

Q) Criterion: IC50 strictly below 2 µM. Is it met by `COc1ccc(CC(C)C)c(CNCc2cc(C(=O)O)cc(CO)n2)n1` ?
A) 1.0

Q) Is the reported IC50 for `CCCCCCc1cccnc1CCNCc1cc(C(=O)O)cc(C)n1` strictly below 2 µM?
A) 0.0

Q) Criterion: IC50 strictly below 2 µM. Is it met by `O=C(O)c1cc(CO)nc(CNCc2nccn2Cc2ccc(F)cc2)c1` ?
A) 1.0

Q) A record lists `Cc1cc(C(=O)O)cc(CNCc2ncc(CN(C)C)n2Cc2ccc(F)cc2)n1` . Is its IC50 below 2 µM?
A) 1.0

Q) Report whether reported IC50 is lower than 2 µM (strictly) for CC(O)c1nnc(CNCc2cc(C(=O)O)cc(CO)n2)n1Cc1ccc(F)cc1 (stereo not drawn)
A) 1.0

Q) Regarding `CCc1nnc(CNCc2cc(C(=O)O)cc(CO)n2)n1Cc1ccc(F)cc1` , kindly confirm whether its IC50 is beneath 2 µM.
A) 1.0

Q) Does `Cc1cc(C(=O)O)cc(CNCc2ncc(CCCc3ccccc3)n2Cc2ccc(F)cc2)n1` have IC50 strictly under 2 µM?
A) 0.0

Q) hey, is IC50 for `Cc1cc(C(=O)O)cc(CNCc2nnc(Cc3cccs3)n2Cc2ccc(F)cc2)n1` lower than 2 µM or not?
A) 1.0

Q) Report whether reported IC50 is lower than 2 µM (strictly) for `C=Cc1cc(C(=O)O)cc(CNCc2nccn2Cc2ccc(F)cc2)n1`
A) 0.0

Q) Is it true that IC50 reported for `Cc1cc(C(=O)O)cc(CNCc2nccn2CCC(C)C)n1` is less than 2 µM?
A) 0.0

Q) Determine if `Cc1cc(C(=O)O)cc(CNCc2nnc(C)n2Cc2ccc(F)cc2)n1` shows IC50 strictly lower than 2 µM.
A) 1.0

Q) Take the compound `O=C(O)c1cc(CO)nc(CNCc2nncn2CCCc2ccccc2)c1` and say whether its IC50 is less than 2 µM.
A) 1.0

Q) Below 2 µM on IC50? Entry `Cc1cc(C(=O)O)cc(CNCc2nccn2CCc2ccccc2)n1`
A) 0.0

Q) # strict comparison: is reported IC50 < 2 µM? input = `CCc1nnc(CNCc2cc(C(=O)O)cc(C)n2)n1CCCc1ccccc1`
A) 0.0

Q) Find out if reported IC50 for `COCc1cc(C(=O)O)cc(CNCc2nccn2Cc2ccc(F)cc2)n1` is less than 2 µM
A) 0.0

Q) Is the reported IC50 for Cc1cc(C(=O)O)cc(CNCc2nnc3n2C(c2ccccc2)CNC3)n1 (stereo not drawn) strictly below 2 µM?
A) 0.0

Q) Just wondering, is IC50 of CCCC(C)c1cnc(CNCc2cc(C(=O)O)cc(C)n2)n1Cc1ccc(F)cc1 (stereo not drawn) below 2 µM?
A) 0.0

Q) Hello, is IC50 of the following compound strictly smaller than 2 µM? `CCc1cnc(CNCc2cc(C(=O)O)cc(C)n2)n1Cc1cccs1`
A) 1.0
